- assay_system: T1, GST–PPARα fusion protein (purified ligand binding domain of PPARα)
- T1 sequence (Q07869 whole entry, species assumed, looked up): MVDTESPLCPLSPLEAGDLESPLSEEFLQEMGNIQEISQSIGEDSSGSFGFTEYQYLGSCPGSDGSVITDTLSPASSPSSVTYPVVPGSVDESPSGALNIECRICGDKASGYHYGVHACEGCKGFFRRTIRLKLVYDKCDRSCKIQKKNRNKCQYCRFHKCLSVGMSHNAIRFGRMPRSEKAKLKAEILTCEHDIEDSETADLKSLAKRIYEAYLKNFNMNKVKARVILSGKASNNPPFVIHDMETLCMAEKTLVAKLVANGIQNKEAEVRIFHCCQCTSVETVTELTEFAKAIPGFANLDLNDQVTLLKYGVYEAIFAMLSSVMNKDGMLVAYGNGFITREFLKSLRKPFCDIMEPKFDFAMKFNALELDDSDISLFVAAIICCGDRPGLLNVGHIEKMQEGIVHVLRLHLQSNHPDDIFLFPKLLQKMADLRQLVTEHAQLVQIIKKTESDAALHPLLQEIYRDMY
- test_summary: FRET or BRET; homogeneous TR-FRET as a1, 12-concentration dose–response of aleglitazar; the EC50 is of the compound; delta ratio in % of the reference compound at 10 μM (RO4899100 for PPARα, edaglitazone for PPARγ)
Where no end group is shown, it is not given here. The star is where a group is joined. Biotin = O=C1N[C@H]2[C@H](CS[C@H]2CCCCC(=O)*)N1; Ahx = NCCCCCC(=O)O
measured_metric: delta ratio with aleglitazar (%)
Write the value in % as a bare number.

Recorded results for 2 binders are shown here.
INSERT INTO measurements (binder, experimental_result) VALUES
  ('{Biotin-Ahx}-ADPASNLGLEDIIRKALMGSF (nuclear receptor co-repressor (NCoR), ID2; also called NCoR2; NcoR2; source: synthetic peptide (Jerini or Biosynthan, Berlin)) [NCoR ID2 cofactor peptide (nuclear receptor co-repressor, interaction domain 2)]', -61),
  ('{Biotin-Ahx}-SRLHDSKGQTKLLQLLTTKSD (transcriptional intermediary factor 2 (TIF2), motif 1, residues 630-650; source: synthetic peptide (Jerini or Biosynthan, Berlin)) [TIF2_M1 cofactor peptide (transcriptional intermediary factor 2, motif 1)]', 53);

Fill in the blank: the reported delta ratio with aleglitazar of {Biotin-Ahx}-SPKKKENALLRYLLDKDDTK [TIF2_M3 cofactor peptide (transcriptional intermediary factor 2, motif 3)] is ____.
56

Requested field: delta ratio with aleglitazar. Item: {Biotin-Ahx}-AVQEHASTNMGLEAIIRKALMGKYD (silencing mediator of retinoid and thyroid hormone receptors (SMRT), ID2, residues 2331-2355; also called SMRT2; source: synthetic peptide (Jerini or Biosynthan, Berlin))
-51

Fill in the blank: the reported delta ratio with aleglitazar of {Biotin-Ahx}-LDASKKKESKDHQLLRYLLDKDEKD (source: synthetic peptide (Jerini or Biosynthan, Berlin)) [SRC1_M3 cofactor peptide (steroid receptor co-activator 1, motif 3)] is ____.
53

Item {Biotin-Ahx}-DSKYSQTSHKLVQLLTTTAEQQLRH (source: synthetic peptide (Jerini or Biosynthan, Berlin)) [SRC1_M1 cofactor peptide (steroid receptor co-activator 1, motif 1)] has what recorded delta ratio with aleglitazar?
94

Item under review: {Biotin-Ahx}-STHGTSLKEKHKILHRLLQDS [TIF2_M2 cofactor peptide (transcriptional intermediary factor 2, motif 2)] . Reported delta ratio with aleglitazar?
53

Any idea what its delta ratio with aleglitazar is? The binder is {Biotin-Ahx}-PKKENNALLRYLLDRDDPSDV (source: synthetic peptide (Jerini or Biosynthan, Berlin)) [RAC3_M3 cofactor peptide (receptor-associated co-activator 3, motif 3)]
62
